Source of measurements: PubChem BioAssay (NCI)

Tested on: MDA-MB-231 breast
Test: NCI tumour cell line growth inhibition, 48 h
Recorded endpoint: TGI

So, C=C1C2C[C@@H]3O[C@H]4C[C@H]5O[C@@]6(C[C@@H]7O[C@]8(C[C@H](C)[C@@H]9O[C@@H]%10CC(CO)O[C@@H]%10C[C@@H]9O8)C[C@H](C)[C@@H]7O6)C[C@H]5O[C@H]4[C@H](C)[C@H]3OC(=O)C[C@H]3CC[C@@H]4OC5[C@H]6O[C@]7(CC[C@H]8CC(=C)[C@H](CC[C@@H](C[C@H]1C)O2)O8)CC6O[C@@H]5[C@@H](O7)[C@H]4O3 (stereo partly drawn) ? Its TGI was > 1 µM

So, COC(=O)/C=C/c1cc2c(cc1-c1c(C(=O)O)cc(OC)c(OC)c1OC)OCO2 ? Its TGI was > 10 µM

Proceeding to the next compound to report its TGI.
So, CO/N=C(\C)CCC#Cc1ccccc1C(=O)OC ? Its TGI was > 10 µM

----------
Catalogue of TGI readings, one per entry.
System: RXF 393 renal
Assay: NCI tumour cell line growth inhibition, 48 h

So, O=C(O)CCc1nn2c(nc1=O)sc1ccc3ccccc3c12 ? Its TGI was > 100 µM

So, C=C(Br)CNC(=O)CCC(=O)NCC(=C)Br ? Its TGI was > 100 µM

So, CC(=O)c1cc2ccccc2oc1=O ? Its TGI was > 100 µM

***
So, COc1cc(/C=c2\sc3n(c2=O)C(c2ccc(Cl)cc2)C2=C(CCCC2C)N=3)cc(OC)c1OC (stereo not drawn) ? Its TGI was > 100 µM

----------
Catalogue of TGI readings, one per entry.
Tested on: HOP-92 NSCLC
Test: NCI tumour cell line growth inhibition, 48 h
Reply with just the number (in µM).

Please review the entries below; each comes with its answer.
So, O=c1c(-c2ccccc2)coc2cc(OC/C(=N/O)c3ccccc3)ccc12 ? Its TGI was 47.4

So, Cc1cnc(C(=O)Nc2nc3ccc(S(=O)(=O)Nc4ccc(C5(C(F)(F)F)CC5)cc4)cc3[nH]2)cn1 ? Its TGI was 6.46

***
So, CC(C)(C)OC(=O)N1C(c2cccnc2)=CC[C@H]2C3CC=C(c4cccnc4)[C@@]3(C)CC[C@@H]21 (some centres not stated) ? Its TGI was 8.34

----------
System: MCF7 breast
Test: NCI tumour cell line growth inhibition, 48 h
Recorded endpoint: TGI

Please review the entries below; each comes with its answer.
So, Cc1ccc(NC(=O)c2cc(S(=O)(=O)Nc3nc4ncccc4[nH]3)c(SSc3cc(Cl)c(C(=O)Nc4ccc(C)cc4)cc3S(=O)(=O)Nc3nc4ncccc4[nH]3)cc2Cl)cc1 ? Its TGI was > 100 µM

So, CCOc1ccc2nc(NC(=O)C(=O)C(c3cnc4ccccc4n3)[N+](=O)[O-])sc2c1 (stereo not drawn) ? Its TGI was > 100 µM

So, Nc1onc2c1Cc1c(noc1N)-c1ccccc1-2 ? Its TGI was > 100 µM

So, COc1ccc2c(c1)CCc1c-2n(CCN2CCCCC2)c2ccc(OC)cc12 ? Its TGI was > 100 µM

So, O=C1CCc2c(sc3[nH]c(=S)n(Cc4ccc(Cl)cc4)c(=O)c23)C1 ? Its TGI was > 38.6 µM

***
So, N#Cc1c(N)nc(Sc2ccccc2N)c(C#N)c1-c1ccc(Cl)cc1 ? Its TGI was 29.6 µM

So, CN(Cc1cc(C(C)(C)C)cc(Br)c1O)Cc1cc(C(C)(C)C)cc(Br)c1O ? Its TGI was 10.7 µM

So, C=C1CC2(OC1=O)C(=O)Nc1ccccc12 (stereo not drawn) ? Its TGI was 6.17 µM

----------
Tested on: DMS 273 small cell lung
Test: NCI tumour cell line growth inhibition, 48 h
Catalogue of TGI readings, one per entry.

So, COc1cc2c(cc1OC)/C(=C\c1ccccc1N)C(=O)OC2 ? Its TGI was 25.5 µM

So, O=c1c2cc(Cl)ccc2sc2cccc(Cl)c12 ? Its TGI was > 100 µM

***
So, Cc1cc2c(C)nn(Cc3ccc(Cl)cc3)c2c(C#N)c1C ? Its TGI was > 100 µM

----------
Tested on: SN12C renal
Assay: NCI tumour cell line growth inhibition, 48 h
Recorded endpoint: TGI

So, NC(N)=Nc1ccc(CC(N)C(=O)O)cc1 (stereo unspecified) ? Its TGI was > 12.5 µM

So, CCNC(=O)O[C@H]1CN[C@H](C#Cc2cc3ncnc(Nc4ccc(OCc5cccc(F)c5)c(Cl)c4)c3s2)C1 ? Its TGI was > 25 µM

So, O=c1cccccc1[O-].O=c1cccccc1[O-].O=c1cccccc1[O-].[La+3] ? Its TGI was > 100 µM

So, CCCC(=O)OC1C(CO)OC(n2cc(F)c(=O)[nH]c2=O)C1F (stereo unspecified) ? Its TGI was > 100 µM

***
So, CC(C)(c1ccccc1)c1ccc(OC#N)cc1 ? Its TGI was > 100 µM

So, COC(=O)C1(C)C=CC(=O)C2(C)C1C(O)C1OC3CC(c4ccoc4)C(C)=C3C1(C)C2CC(=O)O (stereo unspecified) ? Its TGI was > 100 µM

----------
Test system: HOP-62 NSCLC
Assay: NCI tumour cell line growth inhibition, 48 h
Recorded endpoint: TGI

So, CC(=O)C1=C(O)CC2CC3c4[nH]c5ccccc5c4CCN3CC2C1 (stereo unspecified) ? Its TGI was > 100 µM

So, BrC(c1cccc2ccccc12)c1cccc2ccccc12 ? Its TGI was 27.1 µM

So, COc1cc2c(cc1OC)C13CCN4CC5CCOC6CC(=O)N2C1C6C5CC43 (stereo unspecified) ? Its TGI was > 100 µM

So, O=C(NC12CC3CC(CC(C3)C1)C2)C(=O)c1c[nH]c2ccccc12 ? Its TGI was 36.7 µM

***
So, COc1ccc(OCC(=O)O)c(C(=O)CCC(=O)O)c1 ? Its TGI was > 10 µM

So, Cc1cc(Cl)ccc1NC(=O)CC1SC(=Nc2ccccc2Cl)NC1=O (stereo unspecified) ? Its TGI was > 100 µM

----------
Test system: HOP-62 NSCLC
Test: NCI tumour cell line growth inhibition, 48 h
Where a SMILES comes first, the peptide text is derived from it. [ ]: non-standard residue; d: D form. The star is where a group is joined. Phe(4-NO2) = N[CH](Cc1ccc([N+](=O)[O-])cc1)C(=O)O; Boc = CC(C)(C)OC(=O)*
Catalogue of TGI readings, one per entry.

So, Cc1cc(C)c(-n2c(-c3ccc(Br)cc3)cs/c2=N\N=C2C=C(C(C)(C)C)C(=O)C(C(C)(C)C)=C2)c(C)c1 ? Its TGI was > 78.6 µM

So, COC(=O)c1ccccc1C1CN=NC12Cc1cc(C)ccc1C2=O (configuration not stated) ? Its TGI was > 100 µM

So, CCOC(=O)c1c(N2CCOCC2)[nH]c(=O)c(C(c2ccco2)c2c(O)c(C(=O)OCC)c(N3CCOCC3)[nH]c2=O)c1O ? Its TGI was > 100 µM

So, N#CC1(C#N)C(C#N)(C#N)C12CCCCCC2 ? Its TGI was > 89.4 µM

So, Cn1cc(C(=O)C[n+]2ccccc2)c2ccccc21 ? Its TGI was > 100 µM

So, CNC(=O)CCC(NC(=O)OC(C)(C)C)C(=O)NC(Cc1ccc([N+](=O)[O-])cc1)C(=O)NCC(=O)NC (configuration not stated) (Boc-Glu(NHMe)-[Phe(4-NO2)]-Gly-NHMe; configuration not given here) ? Its TGI was > 100 µM

So, OC(c1cc(C23CC4CC(CC(C4)C2)C3)nc2c(Cl)cc(Cl)cc12)C1CCCCN1 (configuration not stated) ? Its TGI was 2.97 µM

So, CN(C)CC/[N+]([O-])=C(/c1ccccc1)C12CC3CC(CC(C3)C1)C2 ? Its TGI was 28.9 µM

***
So, Cc1cc2c(C)nn(Cc3ccc(Cl)cc3)c2c(C#N)c1C ? Its TGI was > 100 µM

So, N/C(=N\N=C\c1ccc2c(c1)OCCO2)NO ? Its TGI was 93.2 µM

So, COC(=O)c1c2cccccc-2c(Cc2c3cccccc-3c(C(=O)OC)c2O)c1O ? Its TGI was > 100 µM

So, O=c1/c(=C/c2ccc(-c3ccc(Cl)cc3Cl)o2)sc2n1[C@@H](c1ccc(Cl)cc1)C=C(c1cc(F)c(Cl)cc1Cl)N=2 ? Its TGI was 34.6 µM

----------
System: DU-145 prostate
Experiment: NCI tumour cell line growth inhibition, 48 h
Catalogue of TGI readings, one per entry.

Please review the entries below; each comes with its answer.
So, COc1cc(Cc2nccc3cc(OC)c(OC)cc23)c(N=NN(C)C)cc1OC ? Its TGI was 35.7 µM

So, Cc1cc(C)c(-n2c(-c3ccc(Br)cc3)cs/c2=N\N=C2C=C(C(C)(C)C)C(=O)C(C(C)(C)C)=C2)c(C)c1 ? Its TGI was > 100 µM

***
So, N#Cc1ccc(-n2c3ccccc3c3ccc4c(c32)C(=O)C=CC4=O)cc1 ? Its TGI was > 24.7 µM

So, CCOC(=O)CCC(NC(=O)c1ccc(OCc2ccc3nc(-c4ccccc4)c(Cl)nc3c2)cc1)C(=O)OCC (configuration not stated) ? Its TGI was > 31.6 µM

So, Cc1cccc(NC(=O)c2cccc([N+](=O)[O-])c2O)c1C ? Its TGI was > 100 µM

So, O=c1c(O)c(-c2cc(O)c(O)c(O)c2)oc2cc(O)cc(O)c12 ? Its TGI was > 100 µM

So, COC(=O)CC[C@H](Cc1ccccc1)NC(=O)c1csc([C@@H](C[C@H](C(C)C)N(C)C(=O)[C@@H](NC(=O)[C@H]2CCCCN2C)C(C)C)OC(C)=O)n1 ? Its TGI was > 25 µM
